# System: Colo205
# EXPERIMENTAL DETAILS: Cell survival assay (SRB), Colo205
# Format: cell-based
# EXPERIMENTAL CONTEXT: Homo sapiens, COLO 205, 72 h, Colo205 cells, 3 days
# Method: Cell Survival Assay: Standard Pharmacological Test Procedure. […] Compounds are incubated with cells for 3 days.
*1 amine or outer side, *2 acyl side, *3 side chain or, on linkers, in order; H or OH if unused. Where a SMILES comes first, the peptide text is derived from it. [ ]: non-standard residue; d: D form. The star is where a group is joined. NMePhe(β,β-Me2) = CN[C@H](C(=O)O)C(C)(C)c1ccccc1; X1 = C/C(=C\[C@H](C(C)C)N(C)[*:1])C(=O)[*:2]; Tle = CC(C)(C)[C@H](N)C(=O)O; NHBn = c1ccc(CN*)cc1
MEASUREMENT LABEL: IC50 (nM)
Give bare numbers, in nM.

Below are worked cases with known answers.
• CN[C@H](C(=O)N[C@H](C(=O)N(C)[C@H](/C=C(\C)C(C)=O)C(C)C)C(C)(C)C)C(C)(C)c1ccccc1 = 180
• CN[C@H](C(=O)N[C@H](C(=O)N(C)[C@H](/C=C(\C)C=O)C(C)C)C(C)(C)C)C(C)(C)c1ccccc1 = 5.1
• C/C(=C\[C@H](C(C)C)N(C)C(=O)[C@@H](NC(=O)C(Cc1ccccc1)C(C)(C)c1ccccc1)C(C)(C)C)C(=O)O (stereo partly shown) = 340
• CN[C@H](C(=O)N[C@H](C(=O)N(C)[C@H](/C=C/c1nnn[nH]1)C(C)C)C(C)(C)C)C(C)(C)c1ccccc1 = 71

Record IC50 for all entries; do not skip any.
1. CN[C@H](C(=O)N[C@H](C(=O)N(C)[C@H](/C=C(\C)C=O)C(C)C)C(C)(C)C)C(C)(C)c1ccc([S+](C)C)cc1.O=C(O)C(F)(F)F
2. C=CCC(C(=O)N[C@H](C(=O)N(C)[C@H](/C=C(\C)C(=O)O)C(C)C)C(C)(C)C)C(C)(C)c1ccccc1 (stereo partly shown)
3. CN[C@H](C(=O)N[C@H](C(=O)N(C)[C@H](/C=C(\C)C(=O)N1CCC[C@@H]1C(=O)N1CCC[C@@H]1C(=O)NCc1ccccc1)C(C)C)C(C)(C)C)C(C)(C)c1ccccc1 [Example 28] (H-[NMePhe(β,β-Me2)][Tle][X1][dP][dP]-NHBn)
4. CO[C@H](C(=O)N[C@H](C(=O)N(C)[C@H](/C=C(\C)C(=O)O)C(C)C)C(C)(C)C)C(C)(C)c1ccccc1
5. CN[C@H](C(=O)N[C@H](C(=O)N(C)[C@H](/C=C(\C)C(=O)NO)C(C)C)C(C)(C)C)C(C)(C)c1ccccc1

Reply |
1: 46; 2: 270; 3: 0.25; 4: 1740; 5: 20

* * *

# Test system: KBV1
# EXPERIMENTAL DETAILS: cells
# Format: cell-based
# EXPERIMENTAL CONTEXT: Homo sapiens, KB-V1, 3000 nM
*1 amine or outer side, *2 acyl side, *3 side chain or, on linkers, in order; H or OH if unused. Where a SMILES comes first, the peptide text is derived from it. [ ]: non-standard residue; d: D form. The star is where a group is joined. NMePhe(3-Me,β,β-Me2) = CN[C@H](C(=O)O)C(C)(C)c1cccc(C)c1; NMePhe(β,β-Me2) = CN[C@H](C(=O)O)C(C)(C)c1ccccc1; X1 = C/C(=C\[C@H](C(C)C)N(C)[*:1])C(=O)[*:2]; Tle = CC(C)(C)[C@H](N)C(=O)O; NHBn = c1ccc(CN*)cc1
MEASUREMENT LABEL: inhibition at 3 µM
# output: numeric value plus its unit

Below are worked cases with known answers.
- CN[C@@H](C(=O)N[C@H](C(=O)N(C)[C@H](/C=C(\C)C(=O)N1CCOCC1)C(C)C)C(C)(C)C)C(C)(C)c1ccc(C)c(C)c1: 42%
- CCOS(=O)(=O)/C(C)=C/[C@H](C(C)C)N(C)C(=O)[C@@H](NC(=O)[C@@H](NC)C(C)(C)c1ccccc1)C(C)(C)C: 0%
- CN[C@H](C(=O)N[C@H](C(=O)N(C)[C@H](/C=C(\C)C(=O)N1CCC[C@@H]1C(=O)N1CCC[C@@H]1C(=O)NCc1ccccc1)C(C)C)C(C)(C)C)C(C)(C)c1ccccc1 [Example 28] (H-[NMePhe(β,β-Me2)][Tle][X1][dP][dP]-NHBn): 14%
- CN[C@H](C(=O)N[C@H](C(=O)N(C)[C@H](/C=C(/C)S(=O)(=O)O)C(C)C)C(C)(C)C)C(C)(C)c1ccccc1: 0%
- CN[C@H](C(=O)N[C@H](C(=O)N(C)[C@H](/C=C(\C)C(=O)N1CCN(CCCN(C)C)CC1)C(C)C)C(C)(C)C)C(C)(C)c1ccccc1: 0%
- CN[C@H](C(=O)N[C@H](C(=O)N(C)[C@H](/C=C(\C)C(=O)O)C(C)C)C(C)(C)C)c1ccccc1: 7%

Record inhibition at 3 µM for all entries; do not skip any.
1. CN[C@H](C(=O)N[C@H](C(=O)N(C)[C@H](/C=C(\C)C(=O)NO)C(C)C)C(C)(C)C)C(C)(C)c1ccccc1
2. CN[C@H](C(=O)N[C@H](C(=O)N(C)[C@H](/C=C(\C)C(=O)N1CCC[C@@H]1C(=O)O)C(C)C)C(C)(C)C)C(C)(C)c1ccccc1
3. CN[C@H](C(=O)N[C@H](C(=O)N(C)[C@H](/C=C/S(=O)(=O)O)C(C)C)C(C)(C)C)C(C)(C)c1ccccc1
4. CN[C@H](C(=O)N[C@H](C(=O)N(C)[C@H](/C=C(\C)C(=O)N1CCC[C@@H]1C(=O)N1CCC[C@@H]1C(=O)NCc1ccccc1)C(C)C)C(C)(C)C)C(C)(C)c1cccc(C)c1.O=C(O)C(F)(F)F [Example 9, trifluoroacetic acid salt] (H-[NMePhe(3-Me,β,β-Me2)][Tle][X1][dP][dP]-NHBn)
5. CN[C@H](C(=O)N[C@H](C(=O)N(C)[C@@H](/C=C(\C)C(=O)OCc1ccc(OCc2ccccc2)cc1)C(C)C)C(C)(C)C)C(C)(C)c1ccccc1

Reply |
1. 7%
2. 0%
3. 0%
4. 21%
5. 8%

* * *

# Tested on: KB85
# EXPERIMENTAL DETAILS: cells
# Format: cell-based
# EXPERIMENTAL CONTEXT: 72 h, 3 days, SRB
MEASUREMENT LABEL: IC50 (nM)
Give bare numbers, in nM.

Below are worked cases with known answers.
* CN[C@H](C(=O)N[C@H](C(=O)N(C)[C@H](/C=C(\C)C(=O)N1CCC[C@H]1C(=O)OC)C(C)C)C(C)(C)C)C(C)(C)c1ccccc1 | 7.3
* CN[C@H](C(=O)N[C@H](C(=O)N(C)[C@H](/C=C(\C)C(=O)N1CCC[C@H]1C(=O)O)C(C)C)C(C)(C)C)C(C)(C)c1ccc(C)c(C)c1 | 519
* CN[C@H](C(=O)N[C@H](C(=O)N(C)[C@H](/C=C(\C)C=O)C(C)C)C(C)(C)C)C(C)(C)c1ccccc1 | 1330

Record IC50 for all entries; do not skip any.
1. CN[C@H](C(=O)N[C@H](C(=O)N(C)[C@H](/C=C(\C)C(=O)N1CCC[C@H]1C(=O)OC)C(C)C)C(C)(C)C)C(C)(C)c1cccc(Cl)c1
2. CN[C@H](C(=O)N[C@H](C(=O)N(C)[C@H](/C=C1\NC(=O)NC1=O)C(C)C)C(C)(C)C)C(C)(C)c1ccccc1

Reply |
1: 6.2; 2: 1740

* * *

Exercise: for every item that follows, state its recorded IC50.
# Test system: KB85
# EXPERIMENTAL DETAILS: cells
# Format: cell-based
# EXPERIMENTAL CONTEXT: 72 h, 3 days, SRB

Below are worked cases with known answers.
* CCOP(=O)(OCC)/C(C)=C/[C@H](C(C)C)N(C)C(=O)[C@@H](NC(=O)[C@@H](NC)C(C)(C)c1ccccc1)C(C)(C)C [Example 71] | 1750 nM
* CN[C@H](C(=O)N[C@H](C(=O)N(C)[C@H](/C=C(\C)C(=O)N1CCOCC1)C(C)C)C(C)(C)C)C(C)(C)c1cc(C)cc(C)c1 [Example 3] | 176 nM
* C/C(=C\[C@H](C(C)C)N(C)C(=O)[C@@H](NC(=O)[C@@H](O)C(C)(C)c1ccccc1)C(C)(C)C)C(=O)O [Example 107] | > 3000 nM

Record IC50 for all entries; do not skip any.
1. CN[C@H](C(=O)N[C@H](C(=O)N(C)[C@H](/C=C(\C)C(=O)N1CCC[C@H]1C(=O)O)C(C)C)C(C)(C)C)C(C)(C)C1CCCCC1 [Example 46]
2. CCC(C(=O)N[C@H](C(=O)N(C)[C@H](/C=C(\C)C(=O)O)C(C)C)C(C)(C)C)C(C)(C)c1ccccc1 (stereo partly drawn) [Example 100]

Reply |
["1720 nM", "1150 nM"]

Ask | Item under review: CCOC(=O)/C(C)=C/[C@H](C(C)C)N(C)C(=O)[C@@H](NC(=O)C(SC)C(C)(C)c1ccccc1)C(C)(C)C (stereo partly drawn) [Example 101] . Reported IC50?
Reply | 1820 nM
